- study-system: human RORγt ligand binding domain (RORγt LBD) (Homo sapiens (Human))
- Sequence (P51449 other isoform, or with tags, fused parts or gaps): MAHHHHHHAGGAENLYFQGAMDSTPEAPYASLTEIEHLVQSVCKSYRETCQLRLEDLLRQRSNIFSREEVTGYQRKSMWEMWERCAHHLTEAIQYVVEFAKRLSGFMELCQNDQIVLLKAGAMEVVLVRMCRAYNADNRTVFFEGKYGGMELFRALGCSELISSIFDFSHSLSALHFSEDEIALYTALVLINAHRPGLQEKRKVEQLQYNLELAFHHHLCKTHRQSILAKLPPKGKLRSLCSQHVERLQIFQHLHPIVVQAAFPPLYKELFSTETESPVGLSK
- assay-remarks: RORγt ThermoFluor® assay (thermal shift binding)
- condition-summary: ThermoFluor® Assay, Kd
Where a name gives a salt, the structure may show the parent alone.
Assign Kd to each entry below.
Numeric only. Scale: nM

INPUT: Annotate the compound CCn1nc(C(=O)NC[C@H]2CC[C@@H](S(C)(=O)=O)CN2)c(Cl)c1-c1ccc(CC(C)(C)C(F)(F)F)cc1OC(F)F (stereo in doubt) [Example 11, Hydrobromide] with its measured Kd.
OUTPUT: 35

INPUT: Please supply the value of reported Kd for the item CCOC(=O)[C@]1(CNC(=O)c2nn(CC)c(-c3ccc(N[C@H](C)C(F)(F)F)cc3OC)c2Cl)CC[C@@H](S(C)(=O)=O)CC1 (relative stereo)
OUTPUT: 110

INPUT: Answer with reported Kd of CCn1nc(C(=O)NC[C@H]2CC[C@H](S(N)(=O)=O)CC2)c(C)c1-c1ccc(C[C@H](C)C(F)(F)F)cc1OC(F)F (single isomer, unassigned)
OUTPUT: 1.2

INPUT: State its Kd for this compound: CCn1nc(C(=O)NC[C@@]2(O)CC[C@H](S(C)(=O)=O)C[C@@H]2O)c(Cl)c1-c1ccc(C[C@@H](C)C(F)(F)F)cc1OC(F)F (stereo in doubt)
OUTPUT: 3.7

INPUT: Return value of Kd for input CCn1nc(C(=O)NC[C@H]2CC[C@H](S(N)(=O)=O)CC2)c(Cl)c1-c1ccc(C[C@@H](C)C(F)(F)F)cc1OC(F)F (single isomer, unassigned) , no commentary.
OUTPUT: 0.58

###

- study-system: full-length human RORγt (Homo sapiens (Human), UniProt P51449)
- Sequence (P51449 other isoform, or with tags, fused parts or gaps): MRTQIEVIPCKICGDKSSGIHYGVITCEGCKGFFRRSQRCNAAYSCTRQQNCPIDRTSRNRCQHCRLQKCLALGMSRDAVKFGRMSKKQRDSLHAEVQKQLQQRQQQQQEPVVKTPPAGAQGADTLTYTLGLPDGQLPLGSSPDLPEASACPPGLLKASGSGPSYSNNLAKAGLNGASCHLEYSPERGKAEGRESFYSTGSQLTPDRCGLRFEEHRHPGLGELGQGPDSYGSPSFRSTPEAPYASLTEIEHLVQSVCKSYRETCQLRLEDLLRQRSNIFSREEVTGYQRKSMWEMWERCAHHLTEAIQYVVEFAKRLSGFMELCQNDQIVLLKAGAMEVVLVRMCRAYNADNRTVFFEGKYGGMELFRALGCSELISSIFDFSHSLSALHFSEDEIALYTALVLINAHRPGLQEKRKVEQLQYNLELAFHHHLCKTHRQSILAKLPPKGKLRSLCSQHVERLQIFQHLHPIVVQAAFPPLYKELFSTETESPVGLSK
- assay-remarks: RORγt (full-length human) reporter assay, conditions A or B, HEK293T cells
- Assay type: cell-based
- condition-summary: RORγt (FL) Reporter Assay A or B, IC50, HEK293T cells
IC50 strictly under 0.07 µM means 1; at 0.07 µM or over means -1.

INPUT: Determine if CCn1nc(C(=O)NC[C@]2(O)CC[C@@H](S(C)(=O)=O)CC2)c(Cl)c1-c1ccc(CCC(F)(F)F)cc1OC [Example 39] shows IC50 strictly lower than 0.07 µM.
OUTPUT: 1

INPUT: IC50 strictly < 0.07 µM for this compound? CCn1nc(C(=O)NC[C@]2(O)CC[C@@H](S(C)(=O)=O)CC2)c(C#N)c1-c1ccc(CCC(F)(F)F)cc1OC [Example 124]
OUTPUT: -1

INPUT: API: query returns whether the compound falls strictly under 0.07 µM in IC50. Query: COCCn1nc(C(=O)NC[C@H]2CC[C@H](S(C)(=O)=O)CC2)c(Cl)c1-c1ccc(CC(C)(C)C(F)(F)F)cc1OC [Example 185]
OUTPUT: 1

INPUT: Dear colleague, could you confirm whether IC50 of C[C@H](Cc1ccc(-c2c(Cl)c(C(=O)NC[C@]3(O)CC[C@@H](S(C)(=O)=O)CC3)nn2C)c(OC(F)F)c1)C(F)(F)F (single isomer, unassigned) [Example 152] falls below 0.07 µM? Thanks.
OUTPUT: 1

INPUT: Dear colleague, could you confirm whether IC50 of CCn1nc(C(=O)NC[C@H]2CC[C@H](S(C)(=O)=O)CC2)c(C)c1-c1ccc(CCC(F)(F)F)cc1OC(F)F [Example 224] falls below 0.07 µM? Thanks.
OUTPUT: 1

INPUT: For CCn1nc(C(=O)NC[C@H]2CC[C@@H](S(C)(=O)=O)CN2)c(Cl)c1-c1ccc(CC(C)(C)C(F)(F)F)cc1OC(F)F (stereo in doubt) [Example 13] , is the recorded IC50 below the cut-off of 0.07 µM?
OUTPUT: -1

INPUT: Take the compound CCn1nc(C(=O)NC[C@]2(C(N)=O)CC[C@H](S(C)(=O)=O)CC2)c(Cl)c1-c1ccc(N[C@H](C)C(F)(F)F)cc1OC [Example 34] and say whether its IC50 is less than 0.07 µM.
OUTPUT: -1

INPUT: Answer whether the compound CCn1nc(C(=O)NC[C@]2(O)CC[C@@H](S(C)(=O)=O)CC2)c(C)c1-c1ccc(CC(C)(C)C(F)(F)F)cc1OC(F)F [Example 143] has IC50 strictly less than 0.07 µM
OUTPUT: 1

INPUT: hey, is IC50 for CCOC(=O)[C@]1(CNC(=O)c2nn(CC)c(-c3ccc(N[C@H](C)C(F)(F)F)cc3OC)c2Cl)CC[C@@H](S(C)(=O)=O)CC1 (relative stereo) [Example 95] lower than 0.07 µM or not?
OUTPUT: -1

INPUT: IC50 under 0.07 µM? Item: CCn1nc(C(=O)NC[C@]2(O)CC[C@@H](S(C)(=O)=O)CC2)c(Cl)c1-c1ccc(C[C@@H](C)C(F)(F)F)cc1OC(F)F (single isomer, unassigned) [Example 136]
OUTPUT: 1

INPUT: Take the compound CCn1nc(C(=O)NC[C@H]2CC[C@H](S(C)(=O)=O)CC2)c(Cl)c1-c1ccc(CCC(C)C)cc1OC [Example 74] and say whether its IC50 is less than 0.07 µM.
OUTPUT: 1
